- experimental.target: Torsin-1A (Homo sapiens) (UniProt O14656)
- Sequence (O14656 whole entry, looked up): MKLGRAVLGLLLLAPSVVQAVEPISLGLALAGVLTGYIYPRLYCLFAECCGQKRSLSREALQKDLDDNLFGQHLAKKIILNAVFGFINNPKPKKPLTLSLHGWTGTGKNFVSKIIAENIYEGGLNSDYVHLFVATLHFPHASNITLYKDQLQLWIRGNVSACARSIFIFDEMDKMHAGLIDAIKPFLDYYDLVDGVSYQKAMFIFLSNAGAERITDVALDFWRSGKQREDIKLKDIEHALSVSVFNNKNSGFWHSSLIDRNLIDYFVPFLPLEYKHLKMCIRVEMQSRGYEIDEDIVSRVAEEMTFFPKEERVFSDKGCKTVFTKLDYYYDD
- experiment.notes: small-molecule binders of mutant TOR1A in lysate, primary screen, cell lysate, small-molecule microarray, COS7 lysate, 635/667 nm fluorescence (AID 1150);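 further: score pools 667 nm emission and signal to noise measuring lysate protein binding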
- run.conditions: COS7 hTOR1A mutant lysate, 635 nm fluorescence, higher = more signal
observation.type: composite z-score

Check the records and state composite z-score for `COC(=O)C1=C(C)N(Cc2ccccc2)C2=C3C(=O)OCC[C@@H]3[C@@](O)(C(=O)OC)C(=O)N2[C@@H]1c1ccccc1`
0.319

Supply recorded composite z-score for `COc1ccc(COC(=O)NN=C2C[C@@H](O)[C@@H](O)[C@@H]3[C@@H]4C(=O)N([C@@H](C)c5ccccc5)C(=O)[C@@H]4CC[C@@H]23)cc1` here.
0.388

State its composite z-score for this compound: COC(=O)[C@H](C)NC(=O)CCC1CC(OC(=O)NCc2ccc3c(c2)OCO3)CC2(CCCC(COC(=O)NCCC(C)C)O2)O1 (some centres not stated)
0.593

Could you please provide reported composite z-score for `CC(=O)OC[C@H]1O[C@H](CC=NOC[C@@H](O)[C@H]2O[C@@H]3OC(C)(C)O[C@@H]3[C@H]2O)C=C[C@@H]1OC(C)=O` ? Thanks!
0.071

Give composite z-score for all compounds that follow.
1. CO[C@@H]1C=CCC(=O)N[C@@H](C)C(=O)OC[C@@H](NS(=O)(=O)c2ccc(C)cc2)[C@H](C)C=CCC(=O)OC[C@H]1C
2. CCOC(=O)CCN1C(=O)[C@H]2[C@H]3[C@H](O)[C@H](O)CC(=NNC(=O)OCC)[C@H]3CC[C@H]2C1=O
3. CC(CCC(=O)OC[C@H]1O[C@H](C#Cc2ccccc2)C=C[C@@H]1Oc1ccc(C)cc1)=NO[C@H](C)c1cn([C@@H]2COC[C@H]2O)nn1

1: 0.514; 2: 0.204; 3: 0.326

* * *

So I've got a bunch of compounds here, and I need their z-score values.
- experimental.target: NADPH oxidase 2 (Homo sapiens) (UniProt P04839)
- Sequence (P04839 whole entry, looked up): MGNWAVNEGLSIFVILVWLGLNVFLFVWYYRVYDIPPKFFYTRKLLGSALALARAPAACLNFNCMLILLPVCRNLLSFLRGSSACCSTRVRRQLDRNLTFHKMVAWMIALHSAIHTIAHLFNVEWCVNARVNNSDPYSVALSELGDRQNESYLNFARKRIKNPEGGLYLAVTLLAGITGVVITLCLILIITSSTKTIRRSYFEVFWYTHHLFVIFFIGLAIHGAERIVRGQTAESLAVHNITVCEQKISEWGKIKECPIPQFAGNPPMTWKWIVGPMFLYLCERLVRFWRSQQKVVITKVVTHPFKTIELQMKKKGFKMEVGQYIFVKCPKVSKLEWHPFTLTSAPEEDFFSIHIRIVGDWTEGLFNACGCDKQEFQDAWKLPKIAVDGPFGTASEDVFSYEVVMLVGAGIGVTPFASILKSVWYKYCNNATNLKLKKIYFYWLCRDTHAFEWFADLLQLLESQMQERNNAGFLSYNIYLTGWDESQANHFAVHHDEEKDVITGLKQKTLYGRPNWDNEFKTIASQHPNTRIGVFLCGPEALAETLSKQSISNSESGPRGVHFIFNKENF
- experiment.notes: NOX2-dependent H2O2 signal modulators, primary screen, NOX inhibitor project, cell-based, HEK293-NOX2, PMA-stimulated, Amplex Red fluorescence (AID 1159); further: test concentration not given here
- run.conditions: 45 min, higher = more signal, called active from +8 up or from −8 down
Activity calls are given as the source filed them.

// Input: `CCCNC(=O)OC[C@H]1O[C@H](CCON=C2c3cc(OC)ccc3O[C@H](c3cccc(OC)c3)[C@H]2O)C=C[C@@H]1Oc1ccc(OC)cc1` . Output its z-score only.
0.461 (inactive)

Please report z-score for the following compound: `O=C1[C@H]2[C@H]3[C@H](O)[C@H](O)CC(=NOC[C@@H](O)COCc4ccco4)[C@@H]3CC[C@H]2C(=O)N1C1CCCCC1`
-0.0721 (inactive)

Fill in z-score for record CCC1=NOC(CCC2CC(OC(=O)NCc3cccc4c3OCO4)CC3(CCCC(COC(=O)NCCc4ccc(Cl)cc4)O3)O2)C1 (configuration not stated)
1.28 (inactive)

Item `CO[C@H]1COC(=O)[C@H](CCSC)NC(=O)CC=C[C@@H](C)[C@H](OC)COC(=O)[C@@H](OCc2ccccc2)C=C[C@@H]1C` : provide z-score
0.167 (inactive)

Provide only the value of recorded z-score for `CC(CCN1CCc2nc(-c3ccccc3)c(-c3ccccc3)cc2C1)=NO[C@H](C)c1cn([C@H](CO)Cc2ccccc2)nn1`
-4.57 (inactive)

For each of the compounds below, state z-score.
1. CC#CCOCCC=C1c2ccccc2[C@@H](OC)[C@@H]1C
2. O=C1[C@H]2[C@H]3[C@H](O)[C@H](O)CC(=NO[C@@H]4O[C@H](CO)[C@@H](O)[C@H](O)[C@H]4O)[C@@H]3CC[C@H]2C(=O)N1C1CCCCC1

["0.114 (inactive)", "-0.336 (inactive)"]
